tested on: Saccharomyces cerevisiae; assay: protein stability index of tFT-peptide fusion (C-terminal peptide) (PSI (0-1 scale)); higher = more stable (slower turnover); conditions: genetic background: wild type; temperature: 30 C

>  <chain-sequence>
PRFGADVQKLVG

>  <protein stability index>
0.653

$$$$
>  <chain-sequence>
GVLACVEYSRMS

>  <protein stability index>
0.683

$$$$
>  <chain-sequence>
LPTPFKSSPSAA

>  <protein stability index>
0.674

$$$$

====

test system: Saccharomyces cerevisiae; test: protein stability index of tFT-peptide fusion (C-terminal peptide) (PSI (0-1 scale)); higher = more stable (slower turnover); conditions: genetic background: wild type; temperature: 30 C
Record 1.0 whenever protein stability index is at 0.7 or higher; record 0.0 when lower.

>  <chain-sequence>
TEHIIAFKASVN

>  <experimental-system>
Saccharomyces cerevisiae

>  <category>
0.0

$$$$
>  <chain-sequence>
GSSQGCLICSIA

>  <experimental-system>
Saccharomyces cerevisiae

>  <category>
0.0

$$$$
>  <chain-sequence>
NGCCLVHAETGP

>  <experimental-system>
Saccharomyces cerevisiae

>  <category>
0.0

$$$$
>  <chain-sequence>
PLAPSTPPNLSN

>  <experimental-system>
Saccharomyces cerevisiae

>  <category>
0.0

$$$$
>  <chain-sequence>
PPPPPPLFPPCP

>  <experimental-system>
Saccharomyces cerevisiae

>  <category>
0.0

$$$$
>  <chain-sequence>
FSFEGVLVPLLV

>  <experimental-system>
Saccharomyces cerevisiae

>  <category>
0.0

$$$$
>  <chain-sequence>
AGGVEGRRRVGE

>  <experimental-system>
Saccharomyces cerevisiae

>  <category>
0.0

$$$$
>  <chain-sequence>
CPFLFSLFPHSF

>  <experimental-system>
Saccharomyces cerevisiae

>  <category>
0.0

$$$$
>  <chain-sequence>
DLVRGGNCVYGV

>  <experimental-system>
Saccharomyces cerevisiae

>  <category>
0.0

$$$$
>  <chain-sequence>
GKADRRKSEHVR

>  <experimental-system>
Saccharomyces cerevisiae

>  <category>
1.0

$$$$
>  <chain-sequence>
VLHQWWCIGLGC

>  <experimental-system>
Saccharomyces cerevisiae

>  <category>
1.0

$$$$
>  <chain-sequence>
HPASPPTPPPLP

>  <experimental-system>
Saccharomyces cerevisiae

>  <category>
0.0

$$$$
>  <chain-sequence>
LLAGEDGGVGEE

>  <experimental-system>
Saccharomyces cerevisiae

>  <category>
0.0

$$$$
>  <chain-sequence>
LVDPFAALRHVV

>  <experimental-system>
Saccharomyces cerevisiae

>  <category>
0.0

$$$$
>  <chain-sequence>
YLGWLYQKCGTV

>  <experimental-system>
Saccharomyces cerevisiae

>  <category>
0.0

$$$$
>  <chain-sequence>
SLFRSSHPPRPP

>  <experimental-system>
Saccharomyces cerevisiae

>  <category>
0.0

$$$$
>  <chain-sequence>
QAHRHASPKTRT

>  <experimental-system>
Saccharomyces cerevisiae

>  <category>
0.0

$$$$
>  <chain-sequence>
GGLGVAGAGVVC

>  <experimental-system>
Saccharomyces cerevisiae

>  <category>
0.0

$$$$
>  <chain-sequence>
PPLLPPPPAFVF

>  <experimental-system>
Saccharomyces cerevisiae

>  <category>
0.0

$$$$
>  <chain-sequence>
REKEKMRVVGMT

>  <experimental-system>
Saccharomyces cerevisiae

>  <category>
1.0

$$$$
>  <chain-sequence>
PLHPPSLPPSRS

>  <experimental-system>
Saccharomyces cerevisiae

>  <category>
0.0

$$$$
>  <chain-sequence>
MRLQLTFSILLF

>  <experimental-system>
Saccharomyces cerevisiae

>  <category>
0.0

$$$$
>  <chain-sequence>
GDHGSYAGPALL

>  <experimental-system>
Saccharomyces cerevisiae

>  <category>
0.0

$$$$
>  <chain-sequence>
RSRYWRTHGKVN

>  <experimental-system>
Saccharomyces cerevisiae

>  <category>
0.0

$$$$
>  <chain-sequence>
LCCTLFFCYSYH

>  <experimental-system>
Saccharomyces cerevisiae

>  <category>
0.0

$$$$
>  <chain-sequence>
SGRAWRLRMHVI

>  <experimental-system>
Saccharomyces cerevisiae

>  <category>
0.0

$$$$
>  <chain-sequence>
SWLRPTCLDLYF

>  <experimental-system>
Saccharomyces cerevisiae

>  <category>
1.0

$$$$
>  <chain-sequence>
FYIRFYVYSWLF

>  <experimental-system>
Saccharomyces cerevisiae

>  <category>
0.0

$$$$
>  <chain-sequence>
AVVVWGGGWWWA

>  <experimental-system>
Saccharomyces cerevisiae

>  <category>
1.0

$$$$
>  <chain-sequence>
SLCLPFPSSPPP

>  <experimental-system>
Saccharomyces cerevisiae;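 note: PSI is a weighted mean of sequencing reads over stability bins, variants kept only with over 10 reads, mCherry proximal and sfGFP distal, peptide attached via GGGS linker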

>  <category>
0.0

$$$$
